# ASSAY_DETAILS: Acute toxicity
# Assay type: in vivo
# CONDITION_DETAILS: mouse, in vivo, po; mice, p.o., groups of 10, observation time 4 days
READOUT_NAME: LD50 at 96 h

Name the reported LD50 at 96 h value associated with the compound C[S+]([O-])CCN1C(=O)c2ccccc2C(C)(C)C1=O (stereo not drawn) [B]
~500 mg/kg

Name the reported LD50 at 96 h value associated with the compound CC1(C)C(=O)N(CCS(C)(=O)=O)C(=O)c2ccccc21 [C]
> 500 mg/kg

Name the reported LD50 at 96 h value associated with the compound CSCCN1C(=O)c2ccccc2C(C)(C)C1=O [Compound A]
> 500 mg/kg
